test system: DeltatarO mutant; test: S. aureus survival, RN4220 and DeltatarO strains – OD600, teichoic acid synthesis inhibitors, primary screen (AID 463173); conditions: S. aureus RN4220 wild type/DeltatarO growth, OD600, 18 h, stronger effect = lower value, screened at 18.75 µg/mL (by protocol)
About 4,300 (8.3%) of roughly 52,000 compounds were called active. The sample as a whole holds a higher share of actives than the screen did.
For each entry below, report its survival value.
Provide the reading as a plain figure in %.

[Q] GET /values?readout=survival&item= COc1ccc(CC(CC(=O)O)C(=O)NCc2ccccc2)cc1 (stereo not drawn)
[A] 81

[Q] survival lookup needed for CCN(CC)c1nc(-c2ccccc2Cl)c2cc(Br)ccc2n1 , thanks.
[A] 55

[Q] Find the recorded survival belonging to Clc1ccccc1-c1nc(Nc2ccccc2)nc2ccc(Br)cc12 and report it.
[A] 47
